target: CLDN3/4 (endogenous on LS513 or MCF7 cells); assay: FACS titration of labelled mAb on LS513 cells (endogenous CLDN3/4+)
REPORTED_ENDPOINT: EC50 (µM)
Numbers only; they are read as µM.

// EC50 value for AB1 (antibody, V domains shown, full-length IgG (ExpiCHO)) VH: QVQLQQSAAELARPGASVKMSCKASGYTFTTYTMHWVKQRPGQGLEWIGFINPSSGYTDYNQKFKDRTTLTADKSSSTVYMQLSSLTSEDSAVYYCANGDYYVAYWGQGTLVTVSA VL: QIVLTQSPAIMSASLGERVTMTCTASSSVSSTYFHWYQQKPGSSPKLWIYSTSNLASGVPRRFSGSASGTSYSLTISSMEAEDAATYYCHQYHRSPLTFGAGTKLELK : 5

// EC50 value for AB5 (antibody, V domains shown, full-length IgG (ExpiCHO)) VH: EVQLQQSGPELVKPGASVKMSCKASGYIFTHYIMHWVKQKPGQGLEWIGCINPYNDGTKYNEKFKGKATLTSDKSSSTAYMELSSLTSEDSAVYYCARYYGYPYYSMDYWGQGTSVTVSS VL: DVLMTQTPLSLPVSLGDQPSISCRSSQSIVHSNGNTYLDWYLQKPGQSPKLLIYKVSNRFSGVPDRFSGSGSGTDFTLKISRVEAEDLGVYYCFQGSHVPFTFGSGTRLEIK : 0.781
